target: CaV2.2 (Homo sapiens); construct: expressed in transfected cells; host or cells: HEK293; experiment: VIPR optical membrane potential assay with electrical stimulation; type: cell-based; conditions: Table 3, biological assay data; read-out: IC50
pIC50: −log10 of the molar value.
reported-metric: pIC50

The following compounds have reported results that may help.
CCN(CC)C(=O)c1oc2ccc(S(=O)(=O)N3CCCC(C)C3)cc2c1C (centres unmarked)
> 5.30
Cc1c(C(=O)NCCC2=CCCCC2)oc2ccc(S(=O)(=O)N3CCC4(CC3)OCCO4)cc12
4.70 to 5.30
Cc1c(C(=O)N2CCC(C)CC2)[nH]c2ccc(S(=O)(=O)N3CCC(C)CC3)cc12
4.70 to 5.30
Cc1c(C(=O)N2CCCCC2C)oc2ccc(S(=O)(=O)N3CCCC(C)C3)cc12 (centres unmarked)
4.70 to 5.30
CC1CCN(S(=O)(=O)c2ccc3[nH]cc(C(=O)NC4CC4)c3c2)CC1
> 4.70

Ask: Recorded pIC50 of "Cc1ccc(S(=O)(=O)Nc2ccc3[nH]c(C(=O)NC4CC4)cc3c2)cc1" , please.
Result: 4.70 to 5.30

Ask: Same again, this time with CC1CC(C)CN(S(=O)(=O)c2ccc3[nH]c(C(=O)NCCCc4ccccc4)cc3c2)C1 (centres unmarked)
Result: > 5.30

Ask: Same for "CC1CCN(S(=O)(=O)c2ccc3[nH]c(CNC4CC4)cc3c2)CC1"
Result: > 5.30

----------
target: CaV2.2 (Homo sapiens, UniProt Q00975); construct: expressed in transfected cells; host or cells: HEK293; test: VIPR optical membrane potential assay with electrical stimulation; type: cell-based; details: Table 3, biological assay data; read-out: IC50
Sequence (Q00975 whole entry): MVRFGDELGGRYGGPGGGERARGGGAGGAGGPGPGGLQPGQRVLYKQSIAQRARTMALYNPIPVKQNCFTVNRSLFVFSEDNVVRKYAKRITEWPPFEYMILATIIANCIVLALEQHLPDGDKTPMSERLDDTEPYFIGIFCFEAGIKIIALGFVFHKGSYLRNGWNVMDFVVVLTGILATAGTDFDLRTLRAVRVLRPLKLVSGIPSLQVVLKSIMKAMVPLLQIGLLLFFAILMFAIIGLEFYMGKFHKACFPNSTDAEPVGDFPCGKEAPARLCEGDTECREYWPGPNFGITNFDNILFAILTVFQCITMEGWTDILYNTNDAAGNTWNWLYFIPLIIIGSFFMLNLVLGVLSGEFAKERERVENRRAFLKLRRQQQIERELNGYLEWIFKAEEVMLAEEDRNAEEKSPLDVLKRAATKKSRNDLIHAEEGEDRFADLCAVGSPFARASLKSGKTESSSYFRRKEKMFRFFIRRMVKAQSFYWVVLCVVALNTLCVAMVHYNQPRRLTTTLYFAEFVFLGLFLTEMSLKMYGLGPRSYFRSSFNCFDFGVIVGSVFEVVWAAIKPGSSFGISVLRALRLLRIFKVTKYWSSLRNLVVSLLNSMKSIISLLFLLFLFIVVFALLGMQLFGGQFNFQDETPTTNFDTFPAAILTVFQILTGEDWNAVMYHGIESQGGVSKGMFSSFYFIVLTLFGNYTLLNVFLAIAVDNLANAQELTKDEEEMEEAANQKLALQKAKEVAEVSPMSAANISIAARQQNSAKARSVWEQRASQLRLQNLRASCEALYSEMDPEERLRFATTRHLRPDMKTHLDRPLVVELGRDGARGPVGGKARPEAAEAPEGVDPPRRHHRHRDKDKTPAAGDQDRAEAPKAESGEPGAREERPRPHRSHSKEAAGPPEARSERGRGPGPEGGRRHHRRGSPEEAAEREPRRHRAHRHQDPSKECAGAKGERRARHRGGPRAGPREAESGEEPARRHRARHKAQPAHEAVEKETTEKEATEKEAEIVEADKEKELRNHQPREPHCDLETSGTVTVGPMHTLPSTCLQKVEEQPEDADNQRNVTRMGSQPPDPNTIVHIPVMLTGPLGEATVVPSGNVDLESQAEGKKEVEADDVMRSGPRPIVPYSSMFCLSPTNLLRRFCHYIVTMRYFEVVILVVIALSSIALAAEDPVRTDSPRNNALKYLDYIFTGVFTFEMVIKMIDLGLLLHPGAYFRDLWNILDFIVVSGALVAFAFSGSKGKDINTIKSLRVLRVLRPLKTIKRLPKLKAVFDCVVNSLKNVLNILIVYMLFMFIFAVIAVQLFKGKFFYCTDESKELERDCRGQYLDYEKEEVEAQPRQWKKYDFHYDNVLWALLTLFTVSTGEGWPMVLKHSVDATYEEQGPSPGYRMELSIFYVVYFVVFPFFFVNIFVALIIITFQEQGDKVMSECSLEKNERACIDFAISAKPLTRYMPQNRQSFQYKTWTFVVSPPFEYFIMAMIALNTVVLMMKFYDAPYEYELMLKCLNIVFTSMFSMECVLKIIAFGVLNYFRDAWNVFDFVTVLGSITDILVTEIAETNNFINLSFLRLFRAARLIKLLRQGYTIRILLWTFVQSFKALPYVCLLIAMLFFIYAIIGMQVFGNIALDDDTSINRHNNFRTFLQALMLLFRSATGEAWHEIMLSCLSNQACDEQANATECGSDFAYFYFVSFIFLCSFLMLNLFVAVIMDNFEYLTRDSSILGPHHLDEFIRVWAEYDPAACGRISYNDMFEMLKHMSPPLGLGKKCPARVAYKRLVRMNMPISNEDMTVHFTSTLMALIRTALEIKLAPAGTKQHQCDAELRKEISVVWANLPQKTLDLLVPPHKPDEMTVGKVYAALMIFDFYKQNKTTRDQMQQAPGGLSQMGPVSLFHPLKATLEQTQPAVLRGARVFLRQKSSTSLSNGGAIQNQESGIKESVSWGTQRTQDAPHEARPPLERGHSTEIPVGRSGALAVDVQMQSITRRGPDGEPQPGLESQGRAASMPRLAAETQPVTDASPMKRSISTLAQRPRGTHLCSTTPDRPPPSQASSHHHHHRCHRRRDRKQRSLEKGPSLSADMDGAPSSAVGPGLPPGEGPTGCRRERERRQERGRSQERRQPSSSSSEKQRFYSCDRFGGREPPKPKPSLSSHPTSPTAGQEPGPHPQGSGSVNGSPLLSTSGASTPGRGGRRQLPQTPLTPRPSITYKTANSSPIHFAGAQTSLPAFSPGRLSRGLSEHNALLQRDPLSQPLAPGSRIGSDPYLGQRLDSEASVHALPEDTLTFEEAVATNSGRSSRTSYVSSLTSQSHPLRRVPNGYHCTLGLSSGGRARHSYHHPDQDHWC
Sequence (P54284 whole entry partner): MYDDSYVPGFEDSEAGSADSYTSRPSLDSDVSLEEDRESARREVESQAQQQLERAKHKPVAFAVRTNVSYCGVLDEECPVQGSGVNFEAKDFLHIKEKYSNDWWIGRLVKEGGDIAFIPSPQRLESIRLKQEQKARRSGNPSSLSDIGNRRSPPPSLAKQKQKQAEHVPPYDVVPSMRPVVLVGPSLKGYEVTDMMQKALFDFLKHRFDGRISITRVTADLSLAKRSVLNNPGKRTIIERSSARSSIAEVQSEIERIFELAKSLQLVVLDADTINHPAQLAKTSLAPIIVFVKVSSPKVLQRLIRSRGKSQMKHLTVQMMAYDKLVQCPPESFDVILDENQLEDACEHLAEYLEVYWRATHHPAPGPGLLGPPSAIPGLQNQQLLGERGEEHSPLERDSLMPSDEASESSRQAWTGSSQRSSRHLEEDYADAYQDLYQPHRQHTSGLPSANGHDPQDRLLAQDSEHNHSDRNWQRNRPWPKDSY
Sequence (P54289 25-946 partner limits assumed): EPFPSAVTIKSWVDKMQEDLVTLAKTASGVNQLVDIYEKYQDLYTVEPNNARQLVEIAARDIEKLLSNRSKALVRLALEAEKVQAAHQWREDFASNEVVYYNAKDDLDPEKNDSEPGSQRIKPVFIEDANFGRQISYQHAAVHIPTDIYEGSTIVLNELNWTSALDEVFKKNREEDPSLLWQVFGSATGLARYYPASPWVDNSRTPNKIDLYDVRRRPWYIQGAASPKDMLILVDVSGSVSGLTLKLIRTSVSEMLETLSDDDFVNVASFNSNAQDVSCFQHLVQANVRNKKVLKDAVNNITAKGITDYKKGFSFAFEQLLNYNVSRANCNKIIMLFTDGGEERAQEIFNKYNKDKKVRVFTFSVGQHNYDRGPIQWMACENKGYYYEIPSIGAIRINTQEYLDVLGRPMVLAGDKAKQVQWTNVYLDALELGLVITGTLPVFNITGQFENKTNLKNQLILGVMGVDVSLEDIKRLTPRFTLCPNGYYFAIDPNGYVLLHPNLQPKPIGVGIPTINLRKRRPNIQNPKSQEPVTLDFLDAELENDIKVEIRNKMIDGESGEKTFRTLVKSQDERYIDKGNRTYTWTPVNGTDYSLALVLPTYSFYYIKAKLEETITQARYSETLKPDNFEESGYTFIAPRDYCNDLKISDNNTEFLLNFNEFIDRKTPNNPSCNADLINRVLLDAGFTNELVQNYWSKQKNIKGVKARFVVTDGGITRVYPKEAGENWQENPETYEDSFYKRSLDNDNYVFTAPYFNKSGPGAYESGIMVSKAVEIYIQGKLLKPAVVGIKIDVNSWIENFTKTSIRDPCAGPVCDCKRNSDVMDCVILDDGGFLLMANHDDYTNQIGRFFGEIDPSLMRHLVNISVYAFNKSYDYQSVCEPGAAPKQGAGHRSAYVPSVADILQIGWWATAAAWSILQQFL
Sequence (P54289 947-1103 partner limits assumed): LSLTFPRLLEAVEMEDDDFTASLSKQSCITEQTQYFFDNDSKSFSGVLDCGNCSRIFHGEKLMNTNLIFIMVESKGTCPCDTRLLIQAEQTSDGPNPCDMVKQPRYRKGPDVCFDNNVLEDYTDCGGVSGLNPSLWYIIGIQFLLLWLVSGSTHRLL
pIC50: −log10 of the molar value.
Examples of compounds with documented pIC50 follow.

Cc1c(C(=O)NC(C)C)[nH]c2ccc(S(=O)(=O)N3CCC(C)CC3)cc12 [compound 116]
4.70 to 5.30
CCN(CC)S(=O)(=O)c1ccc2oc(C(=O)NCc3ccc(F)cc3)c(C)c2c1 [compound 337]
> 5.30
CC1CCN(S(=O)(=O)c2ccc3[nH]c(C(=O)NC4CCCCC4)cc3c2)CC1 [compound 448]
4.70 to 5.30
Cc1c(C(=O)N(C(C)C)C(C)C)oc2ccc(S(=O)(=O)N3CC(C)CC(C)C3)cc12 (centres unmarked) [compound 284]
> 5.30

Switching to the query record.
Ask: Fill blank: measured pIC50 of the compound Cc1c(C(=O)NC2CCCCC2)oc2ccc(S(=O)(=O)N3CCC4(CC3)OCCO4)cc12 [compound 371] is ____.
Result: 4.70 to 5.30

----------
target: CaV2.2 (Homo sapiens); construct: expressed in transfected cells; host or cells: HEK293; experiment: VIPR optical membrane potential assay with electrical stimulation; assay type: cell-based; settings: Table 3, biological assay data; read-out: IC50
reported-metric: IC50

Recorded IC50, per entry:
CN1CCN(C(=O)c2cc3cc(S(=O)(=O)N4CCCCCC4)ccc3o2)CC1
5 to 20 µM
CCN(CC)S(=O)(=O)c1ccc2oc(C(=O)NCCc3ccccc3)c(C)c2c1
5 to 20 µM
Cc1c(C(=O)NCC2CCCO2)oc2ccc(S(=O)(=O)N3CC(C)CC(C)C3)cc12 (centres unmarked)
< 5 µM

Ask: Need IC50 of Cc1c(C(=O)N2CC(C)CC(C)C2)oc2ccc(S(=O)(=O)N3CCCCCC3)cc12 (centres unmarked) , thanks.
Result: 5 to 20 µM

Ask: And what about the compound "CCN(CC)S(=O)(=O)c1ccc2oc(C(=O)NCc3ccccc3)c(C)c2c1" ?
Result: 5 to 20 µM

Ask: Please give the result for "Cc1c(C(=O)NC2CC2)oc2ccc(S(=O)(=O)N(C)c3ccccn3)cc12" too.
Result: < 20 µM
